Items are presented alongside their recorded IC50.
Target: α-amylase (Homo sapiens)
Sequence (P04746 16-511): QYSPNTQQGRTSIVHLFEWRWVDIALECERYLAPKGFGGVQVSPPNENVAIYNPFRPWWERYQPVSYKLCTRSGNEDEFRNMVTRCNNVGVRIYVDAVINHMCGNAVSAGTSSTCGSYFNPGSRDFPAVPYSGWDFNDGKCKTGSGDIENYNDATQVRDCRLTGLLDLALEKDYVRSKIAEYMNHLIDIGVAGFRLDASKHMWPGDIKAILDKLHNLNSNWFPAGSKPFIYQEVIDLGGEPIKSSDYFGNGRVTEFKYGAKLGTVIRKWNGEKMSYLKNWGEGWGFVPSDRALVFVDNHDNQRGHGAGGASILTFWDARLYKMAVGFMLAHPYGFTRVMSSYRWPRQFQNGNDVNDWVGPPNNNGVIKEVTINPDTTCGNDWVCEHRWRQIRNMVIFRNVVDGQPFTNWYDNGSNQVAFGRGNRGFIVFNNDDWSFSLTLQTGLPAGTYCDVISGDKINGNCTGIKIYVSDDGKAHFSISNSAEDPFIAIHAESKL
Assay: In-vitro α-amylase inhibition
Assay type: biochemical
Conditions: Table 3, isolated compounds series; based on molecular weight

Q: I have this compound here, CC(C)=CC(=O)CC(C)c1ccc(C)cc1 (stereo not drawn) , and I need its recorded IC50.
A: < 145 µM

More entries:
Q: I have this compound here, "CCCC/C=C/C=O" , and I need its recorded IC50.
A: < 279 µM

Q: I have this compound here, Cc1c(C)c2c(c(C)c1O)CCC(C)(CCCC(C)CCCC(C)CCCC(C)C)O2 (stereo not drawn) , and I need its recorded IC50.
A: < 72.7 µM
